From: ChEMBL document CHEMBL1138888

System: Vero
Assay: Antiproliferative activity against Vero cell
Assay type: functional, cell-based
Details: Chlorocebus sabaeus
Assignment: determine reported pIC50 for the given compounds.
Answer as the number alone; pIC50 is minus log10 of concentration in mol/L.

stdin: For the record "Cc1cc(Sc2c([N+](=O)[O-])cc(C(F)(F)F)cc2[N+](=O)[O-])c(Cl)cc1Cl" , what value of pIC50 is listed for Vero?
stdout: 5.28

stdin: Lab note: need pIC50 for "Cc1cc(S(=O)(=O)c2c([N+](=O)[O-])cc(C(F)(F)F)cc2[N+](=O)[O-])c(Cl)cc1Cl" on Vero, anyone have it?
stdout: 4.62
